What Unstimulated GH release was measured for each of the following?
- assayed system: Ghrelin/GHRP/GHS Receptor (Rattus norvegicus)
- Sequence (O08725 whole entry): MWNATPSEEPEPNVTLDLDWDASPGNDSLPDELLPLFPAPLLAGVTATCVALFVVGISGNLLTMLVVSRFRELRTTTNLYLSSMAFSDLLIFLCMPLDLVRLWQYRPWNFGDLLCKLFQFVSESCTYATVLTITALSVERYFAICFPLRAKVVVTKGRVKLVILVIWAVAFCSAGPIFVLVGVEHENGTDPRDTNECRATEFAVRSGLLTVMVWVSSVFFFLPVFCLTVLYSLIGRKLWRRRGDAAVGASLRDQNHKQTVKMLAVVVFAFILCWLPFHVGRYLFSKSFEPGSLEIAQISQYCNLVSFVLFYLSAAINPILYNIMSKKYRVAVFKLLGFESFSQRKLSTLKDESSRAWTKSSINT
- assay procedure: GH release from cell culture of pituitary cells
- Assay type: cell-based
- Design: After dispersion, the cells were collected by centrifugation, wash with DMEM and placed into culture well; endogenous in cells; host or cells: dispersed primary rat pituitary cells, 4 days in culture
- experimental parameters: Table 10; compound alone 30 μg/ml

>>> result("N[C@H](COCc1ccccc1)C(=O)N1CCN(c2ccccc2)CC1 [6-D Ser(BZL)-N′-phenyl-N-piperazinamide, D Ser(BZL)-N′-phenyl-N-piperazinamide]")
"368 ± 2 ng/mL"
>>> result("COc1ccccc1N1CCN(C(=O)c2cc3ccccc3cc2C(=O)N2CCN(c3ccccc3OC)CC2)CC1")
"118 ± 8 ng/mL"
>>> result("C=C(C)CON=C(c1ccccc1)c1ccccc1 [5-O-(2-methylallyl) benzophonone oxime, O-(2-methylallyl) benzophonone oxime]")
"616 ± 23 ng/mL"
>>> result("CC(C)(N)C(=O)N[C@H](COCc1ccccc1)C(=O)N1CCN(c2ccccc2)CC1 [αAibDSer(BZL)-N′-phenyl-N-piperazinamide]")
"499 ± 18 ng/mL"

Now examine the next entry.
# input Supply Unstimulated GH release value. Item: N[C@H](Cc1c[nH]c2ccccc12)C(=O)N1CCC(c2ccccc2)CC1 [1-DTrp-4-phenylpiperdinamide, DTrp-4-phenylpiperdinamide]
# output 577 ± 24 ng/mL

----------
- assayed system: Ghrelin/GHRP/GHS Receptor (Rattus norvegicus)
- assay procedure: GH release from cell culture of pituitary cells
- Type: cell-based
- Parameters: After dispersion, the cells were collected by centrifugation, wash with DMEM and placed into culture well; endogenous in cells; host or cells: dispersed primary rat pituitary cells, 4 days in culture
- experimental parameters: Table 8; peptide 10 μg/ml
Where no end group is shown, it is not given here. [ ]: non-standard residue; d: D form.
API: label(entry) gives Fulfilled if the entry's Unstimulated Basal GH release is strictly smaller than 300 ng/mL; on equality or larger values it gives Not fulfilled.

# count of solved cases: 3
>>> classification("[dF]AF[dF]K-NH2 [7-DPhe-Ala-Phe-DPhe-Lys-NH2]")
"Fulfilled"
>>> classification("DPal-Phe-DTrp-Phe-Met-NH2 [12-DPal-Phe-DTrp-Phe-Met-NH2]")
"Not fulfilled"
>>> classification("Arg-DTrp-Leu-Tyr-Trp-Pro(cyclic Arg-Pro) (WLYWP; HELM PEPTIDE1{R.[dW].L.Y.W.P}$PEPTIDE1,PEPTIDE1,1:R1-6:R2$$$V2.0; SMILES CC(C)C[C@@H]1NC(=O)[C@@H](Cc2c[nH]c3ccccc23)NC(=O)[C@H](CCCNC(=N)N)NC(=O)[C@@H]2CCCN2C(=O)[C@H](Cc2c[nH]c3ccccc23)NC(=O)[C@H](Cc2ccc(O)cc2)NC1=O)")
"Not fulfilled"

# input Problem: For the substance DAla-DcyclohexylAla-Ala-Ala-Phe-DPhe-Nle-NH2 , is Unstimulated Basal GH release under 300 ng/mL?
# output Fulfilled

# input Problem: For the substance DPal-Trp-DPhe-Phe-Met-NH2 [14-DPal-Trp-DPhe-Phe-Met-NH2] , is Unstimulated Basal GH release under 300 ng/mL?
# output Not fulfilled

# input Problem: For the substance [dF]W[dF]FM-NH2 [13-DPhe-Trp-DPhe-Phe-Met-NH2] , is Unstimulated Basal GH release under 300 ng/mL?
# output Not fulfilled

# input Problem: For the substance DPhe-Ala-Phe-DPal-NH2 [6-DPhe-Ala-Phe-DPal-NH2] , is Unstimulated Basal GH release under 300 ng/mL?
# output Fulfilled
